Test system: P. vulgaris CN-329
readout_name: MIC (µg/mL)

CO[C@@]1(NC(=O)C(C(=O)O)c2ccsc2)C(=O)N2C(C(=O)O)=C(CSc3nnc(C)s3)CO[C@@H]21 (stereo partly shown) | 0.1

A = CO[C@@]1(NC(=O)C(C(=O)O)c2ccsc2)C(=O)N2C(C(=O)O)=C(CSc3nncs3)CO[C@@H]21 (stereo partly shown)
B = CO[C@@]1(NC(=O)C(C(=O)O)c2ccc(O)cc2)C(=O)N2C(C(=O)O)=C(CSc3nncs3)CO[C@@H]21 (stereo partly shown)
C = CO[C@@]1(NC(=O)C(C(=O)O)c2ccc(O)cc2)C(=O)N2C(C(=O)O)=C(CSc3nnc(C)s3)CO[C@@H]21 (stereo partly shown)
## Input Exam item: list the entries in increasing order of MIC. Put the labels in the order asked and list them.
## Output A, C, B
(A: 0.2 µg/mL, C: 0.39 µg/mL, B: 0.78 µg/mL)

====

# collection of MIC values tested on K. pneumoniae SHIONOGI
readout_name: MIC (µg/mL)

CO[C@@]1(NC(=O)C(C(=O)O)c2ccsc2)C(=O)N2C(C(=O)O)=C(CSc3nnc(C)s3)CO[C@@H]21 (stereo partly shown) [Compound (3)] | 0.2

I = CO[C@@]1(NC(=O)C(C(=O)O)c2ccsc2)C(=O)N2C(C(=O)O)=C(CSc3nncs3)CO[C@@H]21 (stereo partly shown) [Compound (4)]
II = CO[C@@]1(NC(=O)C(C(=O)O)c2ccc(O)cc2)C(=O)N2C(C(=O)O)=C(CSc3nncs3)CO[C@@H]21 (stereo partly shown) [Compound (2)]
III = CO[C@@]1(NC(=O)C(C(=O)O)c2ccc(O)cc2)C(=O)N2C(C(=O)O)=C(CSc3nnc(C)s3)CO[C@@H]21 (stereo partly shown) [Compound (1)]
## Input Sort the 3 molecules by MIC; largest first, smallest last. Labels, ranked as asked.
## Output III, II, I

====

System: E. coli 73
Experiment: MIC by agar-dilution, E. coli 73
Format: cell-based
Conditions: Escherichia coli, as sodium salt, pH 7.0, inoculum 10^6, read-out: Minimal Inhibitory Concentration
readout_name: MIC (µg/mL)

CO[C@@]1(NC(=O)C(C(=O)O)c2ccsc2)C(=O)N2C(C(=O)O)=C(CSc3nncs3)CO[C@@H]21 (stereo partly shown) | 0.78

P = CO[C@@]1(NC(=O)C(C(=O)O)c2ccc(O)cc2)C(=O)N2C(C(=O)O)=C(CSc3nncs3)CO[C@@H]21 (stereo partly shown)
Q = CO[C@@]1(NC(=O)C(C(=O)O)c2ccc(O)cc2)C(=O)N2C(C(=O)O)=C(CSc3nnc(C)s3)CO[C@@H]21 (stereo partly shown)
## Input Looking only at measured MIC, which entry is lower, P or Q ? Indicate your choice by writing its label.
## Output P
(P: 3.13 µg/mL, Q: 6.25 µg/mL)

====

System: S. aureus 077
readout_name: MIC (µg/mL)

Would you please look over these solved cases?
CO[C@@]1(NC(=O)C(C(=O)O)c2ccc(O)cc2)C(=O)N2C(C(=O)O)=C(CSc3nncs3)CO[C@@H]21 (stereo partly shown) | 25
CO[C@@]1(NC(=O)C(C(=O)O)c2ccsc2)C(=O)N2C(C(=O)O)=C(CSc3nncs3)CO[C@@H]21 (stereo partly shown) | 6.25

1 = CO[C@@]1(NC(=O)C(C(=O)O)c2ccsc2)C(=O)N2C(C(=O)O)=C(CSc3nnc(C)s3)CO[C@@H]21 (stereo partly shown)
2 = CO[C@@]1(NC(=O)C(C(=O)O)c2ccc(O)cc2)C(=O)N2C(C(=O)O)=C(CSc3nnc(C)s3)CO[C@@H]21 (stereo partly shown)
## Input Higher MIC between 1 and 2 ? Refer to your chosen entry by its label in the reply.
## Output 2

====

This section lists MIC readings for S. pyogenes C-203.
readout_name: MIC (µg/mL)

Consider the following illustrative entries.
CO[C@@]1(NC(=O)C(C(=O)O)c2ccc(O)cc2)C(=O)N2C(C(=O)O)=C(CSc3nnc(C)s3)CO[C@@H]21 (stereo partly shown) [Compound (1)] | 3.13
CO[C@@]1(NC(=O)C(C(=O)O)c2ccsc2)C(=O)N2C(C(=O)O)=C(CSc3nncs3)CO[C@@H]21 (stereo partly shown) [Compound (4)] | 3.13

a = CO[C@@]1(NC(=O)C(C(=O)O)c2ccc(O)cc2)C(=O)N2C(C(=O)O)=C(CSc3nncs3)CO[C@@H]21 (stereo partly shown) [Compound (2)]
b = CO[C@@]1(NC(=O)C(C(=O)O)c2ccsc2)C(=O)N2C(C(=O)O)=C(CSc3nnc(C)s3)CO[C@@H]21 (stereo partly shown) [Compound (3)]
## Input Pick one: a or b . Which one has the lower reported MIC? Select an item and report its label.
## Output b
(b: 0.78 µg/mL, a: 3.13 µg/mL)

Source of measurements: patent US4201782A
